Reported pEC50 values for a set of binders
- TEST TARGET: T1, HD49 (huntingtin exon 1 protein with 49 polyQ repeats after cleavage of the GST tag; aggregation reaction) (human, UniProt P42858 1-88)
- T1 chain: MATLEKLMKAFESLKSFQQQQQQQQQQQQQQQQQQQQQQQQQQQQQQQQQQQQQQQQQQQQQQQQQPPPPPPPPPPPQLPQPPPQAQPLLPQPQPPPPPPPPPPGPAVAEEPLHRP
- EXPERIMENT NOTES: ELISA
pEC50: −log10 of the molar value.

BINDER: NI-302.8F1 (antibody, V domains shown) VH: EVQLVESGGGLVKPGGSLTISCAASGFTFSNAWMNWVRQAPGKGLEWVGHIRTQAEGGTSDYAAPVKGRFTISRDDSKNTLYLQMNSLKTEDTAVYYCIPPPYYYYYGLDVWGQGTTVTVSS VL: QSALTQPASVSGSPGQSITISCTGASSDVGTYDLVSWYQQHPGKAPKLIIYEVNKRPSGVSYRFSASKSANTASLTISGLQAEDEAEYYCCSYAGYSTVFGGGTKLTVL
pEC50: 8.72
--
BINDER: NI-302.39G12 (antibody, V domains shown) VH: EVQLVQSGGGLVHPWGSLRLSCAASGFSVSNYAITWVRRAPGKGLQYISVIYRDGRTYYGDSVRGRFTISRDDSKNTLYLQMNSLRFEDTAVYYCARAHGQYYYGVDVWGQGTTVTVSS VL: DVVMTQSPLSLSVSPGEPASISCRSSQSLLHSNGYNYLDWYRQKPGQSPQLLIYLSSNRPSGVPDRFSASGSGTEFTLQISRVEAEDVGVYYCMQSLQTFTFGGGTKVDIK
pEC50: 7.55
--
BINDER: NI-302.55D8 (antibody, V domains shown) VH: QVQLVQSGSEVKKPGASVKVSCKASGYTFTDYYIHWVRQAPGQGLEWMGRINPNNGGTNYAQNFQGWVTMTRDTSISTAYMELSRLRSDDTAVYYCARVGGELLREGGYHYYMDVWGKGTTVTVSS VL: QSVLTQPPSVSGAPGQRVTISCTGNSSNIGAGYDVHWYQQLPGTAPKLLIFDNTNRPSGVPDRFSGSKSGTSASLAITGLQAEDEANYHCQSYDNSLSGSWVFGGGTKLTVL
pEC50: 8.77
--
BINDER: NI-302.44D7 (antibody, V domains shown) VH: EVQLVQSGGGLVQPGGSLRLSCAASGFTFSSYAMSWVRQAPGKGLEWVSGIGYSDTSTYYADSVKGRFTVSRDISKNTLYLQMNSLRAEDTAVYYCAKGTRDYYGMDVWGQGTMVTVSS VL: QTVVTQEPSFSVSPGGTVTLTCGLSSGSVSTSYYPSWYQQTPGRAPRTLIYSTNTRSSGVPDRFSGSILGNKAALTITGAQADDESDYYCVLFMGSGIGVFGGGTRLTVL
pEC50: 8.00
